Origin of measurements: patent US20160362693A1

# Tested on: OV-90 ovarian tumor cells
# measurementNotes: Viability of ovarian tumor cells after siRNA transfection (trypan blue count)
# Format: cell-based, human
# measurementContext: 50 nM siRNA, DharmaFECT, 96 hours, vs control siRNA
Parameter threshold = 20%. Response is true when Response to siRNA (% growth inhibition) meets or exceeds it, else false.

substance	assignedLabel
siEVI1-992: siRNA duplex; sense 5′-ggacaaauguucagcacuauu-3′ SEQ ID NO: 11, antisense SEQ ID NO: 12 (sense GGACAAAUGUUCAGCACUAUU; antisense UAGUGCUGAACAUUUGUCCUU; listed as RNA, chemistry not given here)	true
siEVI1-2910: siRNA duplex; sense 5′-ggaauguggaggagagaauuu-3′ SEQ ID NO: 13, antisense SEQ ID NO: 14 (sense GGAAUGUGGAGGAGAGAAUUU; antisense AUUCUCUCCUCCACAUUCCUU; listed as RNA, chemistry not given here)	true
siEVI1-256: siRNA duplex; sense 5′-ccagauaaaugaucagauauu-3′ SEQ ID NO: 7, antisense SEQ ID NO: 8 (sense CCAGAUAAAUGAUCAGAUAUU; antisense UAUCUGAUCAUUUAUCUGGUU; listed as RNA, chemistry not given here)	true
siEVI1-979: siRNA duplex; sense 5′-gugcaaagacuguggacaauu-3′ SEQ ID NO: 9, antisense SEQ ID NO: 10 (sense GUGCAAAGACUGUGGACAAUU; antisense UUGUCCACAGUCUUUGCACUU; listed as RNA, chemistry not given here)	false
siEVI1-2994: siRNA duplex; sense 5′-augaagaaguugaagaugauu-3′ SEQ ID NO: 15, antisense SEQ ID NO: 16 (sense AUGAAGAAGUUGAAGAUGAUU; antisense UCAUCUUCAACUUCUUCAUUU; listed as RNA, chemistry not given here)	true

---

# Tested on: MCF-7 breast tumor cells
# measurementNotes: Viability of breast tumor cells after siRNA transfection (trypan blue count)
# Format: cell-based, human
# Set-up: dose or concentration left out as unconfirmed
# measurementContext: DharmaFECT, 96 hours, vs control siRNA

substance	Response to siRNA (% growth inhibition)
siEVI1-979: siRNA duplex; sense 5′-gugcaaagacuguggacaauu-3′ SEQ ID NO: 9, antisense SEQ ID NO: 10 (sense GUGCAAAGACUGUGGACAAUU; antisense UUGUCCACAGUCUUUGCACUU; listed as RNA, chemistry not given here)	0%
siEVI1-2910: siRNA duplex; sense 5′-ggaauguggaggagagaauuu-3′ SEQ ID NO: 13, antisense SEQ ID NO: 14 (sense GGAAUGUGGAGGAGAGAAUUU; antisense AUUCUCUCCUCCACAUUCCUU; listed as RNA, chemistry not given here)	67%
siEVI1-256: siRNA duplex; sense 5′-ccagauaaaugaucagauauu-3′ SEQ ID NO: 7, antisense SEQ ID NO: 8 (sense CCAGAUAAAUGAUCAGAUAUU; antisense UAUCUGAUCAUUUAUCUGGUU; listed as RNA, chemistry not given here)	32%
siEVI1-2994: siRNA duplex; sense 5′-augaagaaguugaagaugauu-3′ SEQ ID NO: 15, antisense SEQ ID NO: 16 (sense AUGAAGAAGUUGAAGAUGAUU; antisense UCAUCUUCAACUUCUUCAUUU; listed as RNA, chemistry not given here)	57%
siEVI1-992: siRNA duplex; sense 5′-ggacaaauguucagcacuauu-3′ SEQ ID NO: 11, antisense SEQ ID NO: 12 (sense GGACAAAUGUUCAGCACUAUU; antisense UAGUGCUGAACAUUUGUCCUU; listed as RNA, chemistry not given here)	0%

---

# System: LNCaP prostate tumor cells
# measurementNotes: Viability of prostate tumor cells after siRNA transfection (trypan blue count)
# Type: cell-based, human
# measurementContext: 50 nM siRNA, DharmaFECT, 96 hours, vs control siRNA
Listing of entries alongside the reported Response to siRNA (% growth inhibition).

substance	Response to siRNA (% growth inhibition)
siEVI1-2994: siRNA duplex; sense 5′-augaagaaguugaagaugauu-3′ SEQ ID NO: 15, antisense SEQ ID NO: 16 (sense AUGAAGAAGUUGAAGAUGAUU; antisense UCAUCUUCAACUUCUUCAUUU; listed as RNA, chemistry not given here)	12%
siEVI1-2910: siRNA duplex; sense 5′-ggaauguggaggagagaauuu-3′ SEQ ID NO: 13, antisense SEQ ID NO: 14 (sense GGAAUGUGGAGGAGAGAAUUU; antisense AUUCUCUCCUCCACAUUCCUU; listed as RNA, chemistry not given here)	46%
siEVI1-992: siRNA duplex; sense 5′-ggacaaauguucagcacuauu-3′ SEQ ID NO: 11, antisense SEQ ID NO: 12 (sense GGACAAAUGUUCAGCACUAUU; antisense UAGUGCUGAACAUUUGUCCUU; listed as RNA, chemistry not given here)	12%
siEVI1-979: siRNA duplex; sense 5′-gugcaaagacuguggacaauu-3′ SEQ ID NO: 9, antisense SEQ ID NO: 10 (sense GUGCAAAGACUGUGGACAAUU; antisense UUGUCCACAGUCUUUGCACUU; listed as RNA, chemistry not given here)	12%
siEVI1-256: siRNA duplex; sense 5′-ccagauaaaugaucagauauu-3′ SEQ ID NO: 7, antisense SEQ ID NO: 8 (sense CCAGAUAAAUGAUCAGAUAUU; antisense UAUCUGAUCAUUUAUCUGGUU; listed as RNA, chemistry not given here)	4%

---

# Test system: SK-OV-3 ovarian tumor cells
# measurementNotes: Viability of ovarian tumor cells after siRNA transfection (trypan blue count)
# Type: cell-based, human
# measurementContext: 50 nM siRNA, DharmaFECT, 96 hours, vs control siRNA
# Procedure: Each of the five siRNA duplexes presented in Table 2 were introduced into cultures of ovarian tumor cells at a concentration of 50 nM. Briefly, fifty to one hundred thousand tumor cells were added to each well of a 6 well plate and allowed to attach to the surface and grow for 18 hours in DMEM medium containing 10% fetal bovine serum. […] The viability of the ovarian tumor cells was assessed by counting cells with a hemocytometer following trypan blue exclusion staining. […]
Listing of entries alongside the reported Response to siRNA (% growth inhibition).

substance	Response to siRNA (% growth inhibition), %
siEVI1-2910: siRNA duplex; sense 5′-ggaauguggaggagagaauuu-3′ SEQ ID NO: 13, antisense SEQ ID NO: 14 (sense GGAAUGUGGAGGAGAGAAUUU; antisense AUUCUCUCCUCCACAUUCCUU; listed as RNA, chemistry not given here)	12
siEVI1-992: siRNA duplex; sense 5′-ggacaaauguucagcacuauu-3′ SEQ ID NO: 11, antisense SEQ ID NO: 12 (sense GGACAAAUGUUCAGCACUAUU; antisense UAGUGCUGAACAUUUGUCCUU; listed as RNA, chemistry not given here)	31
siEVI1-979: siRNA duplex; sense 5′-gugcaaagacuguggacaauu-3′ SEQ ID NO: 9, antisense SEQ ID NO: 10 (sense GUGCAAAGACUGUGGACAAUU; antisense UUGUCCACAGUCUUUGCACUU; listed as RNA, chemistry not given here)	42
siEVI1-2994: siRNA duplex; sense 5′-augaagaaguugaagaugauu-3′ SEQ ID NO: 15, antisense SEQ ID NO: 16 (sense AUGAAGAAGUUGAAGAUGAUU; antisense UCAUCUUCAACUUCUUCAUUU; listed as RNA, chemistry not given here)	0
siEVI1-256: siRNA duplex; sense 5′-ccagauaaaugaucagauauu-3′ SEQ ID NO: 7, antisense SEQ ID NO: 8 (sense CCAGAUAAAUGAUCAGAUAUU; antisense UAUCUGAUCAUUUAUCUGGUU; listed as RNA, chemistry not given here)	12

---

# Test system: Hs832.Tc cells
# measurementNotes: Viability of ovarian cells after siRNA transfection (trypan blue count)
# Type: cell-based, human
# measurementContext: 50 nM siRNA, DharmaFECT, 96 hours, vs control siRNA
# Protocol: Each of the five siRNA duplexes presented in Table 2 were introduced into cultures of ovarian tumor cells at a concentration of 50 nM. Briefly, fifty to one hundred thousand tumor cells were added to each well of a 6 well plate and allowed to attach to the surface and grow for 18 hours in DMEM medium containing 10% fetal bovine serum. […] The viability of the ovarian tumor cells was assessed by counting cells with a hemocytometer following trypan blue exclusion staining. […]
recordedEndpoint: Response to siRNA (% growth inhibition) (%)

substance	recordedEndpoint	measValue
siEVI1-2994: siRNA duplex; sense 5′-augaagaaguugaagaugauu-3′ SEQ ID NO: 15, antisense SEQ ID NO: 16 (sense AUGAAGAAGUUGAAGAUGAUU; antisense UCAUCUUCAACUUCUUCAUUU; listed as RNA, chemistry not given here)	Response to siRNA (% growth inhibition)	0
siEVI1-256: siRNA duplex; sense 5′-ccagauaaaugaucagauauu-3′ SEQ ID NO: 7, antisense SEQ ID NO: 8 (sense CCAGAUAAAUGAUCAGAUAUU; antisense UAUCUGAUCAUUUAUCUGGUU; listed as RNA, chemistry not given here)	Response to siRNA (% growth inhibition)	0
siEVI1-2910: siRNA duplex; sense 5′-ggaauguggaggagagaauuu-3′ SEQ ID NO: 13, antisense SEQ ID NO: 14 (sense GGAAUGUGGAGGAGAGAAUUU; antisense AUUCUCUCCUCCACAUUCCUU; listed as RNA, chemistry not given here)	Response to siRNA (% growth inhibition)	0
siEVI1-979: siRNA duplex; sense 5′-gugcaaagacuguggacaauu-3′ SEQ ID NO: 9, antisense SEQ ID NO: 10 (sense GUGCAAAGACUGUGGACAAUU; antisense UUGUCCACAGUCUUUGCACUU; listed as RNA, chemistry not given here)	Response to siRNA (% growth inhibition)	0
siEVI1-992: siRNA duplex; sense 5′-ggacaaauguucagcacuauu-3′ SEQ ID NO: 11, antisense SEQ ID NO: 12 (sense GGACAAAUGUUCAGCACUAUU; antisense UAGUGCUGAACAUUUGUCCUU; listed as RNA, chemistry not given here)	Response to siRNA (% growth inhibition)	10
